Test system: rgRSV224 virus
experimentalDetails: microbe, parasite or virus in culture
Assay type: cell-based, respiratory syncytial virus (RSV)
settings: Table 2; rgRSV224 in HeLa cells, MOI 0.02, three days post-virus exposure, GFP expression; read-out: WT activity EC50
quantityMeasured: EC50 (nM)
Report the value in nM with no unit label.

Value lookup for EC50; key = CS(=O)(=O)CCCn1c(Cn2c(=O)n(C3CC3)c3ccncc32)cc2nc(Cl)ccc21 [Compound P33]
5.76

What does the data say about its EC50? Entry: CS(=O)(=O)CCCn1c(Cn2c(=O)n(C3CC3)c3ccncc32)cc2cnccc21 [Compound P18]
0.98

If you can, please state the reported EC50 value of CS(=O)(=O)CCCn1c(Cn2c(=O)n(CC(F)(F)F)c3ccc(F)cc32)c(Br)c2cnccc21 [Compound P29] .
63.5

Need EC50, item O=c1n(Cc2cc3cnccc3n2CCCC(F)(F)F)c2cnccc2n1C1CC1 [Compound P21]
0.247
